# ASSAY_INFO: reversal of MRP1-mediated doxorubicin resistance, pilot screen, H69AR cells, doxorubicin co-treatment (AID 601)
# MEASUREMENT_CONDITIONS: H69AR cells, CellTiter-Glo, 72 h; compound alone cytotoxicity; at 10 µM
Reported viability values for a set of compounds

- COMPOUND: "CCOC(=O)N1CCN(C(=O)CCc2ccc(S(=O)(=O)NCCc3ccccc3)cc2)CC1"
  viability [%]: 101
- COMPOUND: "O=C(NCCC1=CCCCC1)C1CCN(S(=O)(=O)c2cccc3nsnc23)CC1"
  viability [%]: 96.5
- COMPOUND: "COC(=O)CSc1cc(C)nc(NC(C)=O)n1"
  viability [%]: 101
- COMPOUND: "CN1CCN(CC(=O)N2c3ccccc3C(=O)Nc3cccnc32)CC1"
  viability [%]: 96.1
- COMPOUND: "CCOC(=O)C1=C(C)NC(C)=C(C(=O)OCC)C1C(=O)OC1CCOC1=O (centres undefined)"
  viability [%]: 93.8
- COMPOUND: "c1ccc2c(CC3=NCCN3)cccc2c1"
  viability [%]: 93.8
- COMPOUND: "COCCn1c(=NC(=O)CSC(C)=O)sc2cc(F)ccc21"
  viability [%]: 58.2
- COMPOUND: "CCOC(=O)CNC(=O)CSc1nc(N)cc(N)n1"
  viability [%]: 96.7
- COMPOUND: "CC(=O)[C@@]1(O)CC[C@H]2[C@@H]3CCC4=CC(=O)CC[C@]4(C)[C@H]3[C@@H](O)C[C@@]21C"
  viability [%]: 99.5
- COMPOUND: "CCC1(CC)NC(=O)NC1=O"
  viability [%]: 105
- COMPOUND: "CC1(C)NC(=O)N(CC(O)CN(Cc2ccccc2)Cc2ccccc2)C1=O (centres undefined)"
  viability [%]: 92.6
- COMPOUND: "Nc1c(C(=O)NCCc2ccccc2)nnn1Cc1ccccc1"
  viability [%]: 95.8
- COMPOUND: "CC(C(=O)Nc1ccccc1-c1ccccc1)N1CCN(C(=O)c2ccco2)CC1 (centres undefined)"
  viability [%]: 74.1
- COMPOUND: "O=C(Cn1cnc2c(nnn2Cc2ccccc2)c1=O)c1ccc(Cl)cc1"
  viability [%]: 97.1
- COMPOUND: "CN(C)/C=C1\\N=C(c2ccc3c(c2)OCO3)OC1=O"
  viability [%]: 98.1
- COMPOUND: "COc1ccc(N2CCN(c3ncnc4c3cnn4-c3ccc(C)cc3C)CC2)cc1"
  viability [%]: 66.2
- COMPOUND: "C=CCOc1nc(N(C)C)nc(N(C)C)n1"
  viability [%]: 98.2
- COMPOUND: "COc1cc(NC(=O)c2cc(CC(C)C)on2)c(OC)cc1Cl"
  viability [%]: 88.9
- COMPOUND: "COc1ccc(S(=O)(=O)C(C#N)c2nc3ccccc3nc2N2CCCC(C)C2)cc1 (centres undefined)"
  viability [%]: 75.5
- COMPOUND: "Cc1cc2ccccn2c1C(=O)c1ccncc1"
  viability [%]: 87.9
- COMPOUND: "CCOc1ccc(C(=O)N2CCN(c3ccccc3)CC2)cc1OCC"
  viability [%]: 83.5
- COMPOUND: "OCc1cn(-c2ccccc2)nc1-c1ccc2c(c1)OCCO2"
  viability [%]: 83.9
- COMPOUND: "COc1ccc(Br)cc1S(=O)(=O)N1CC(C)OC(C)C1 (centres undefined)"
  viability [%]: 91.3
- COMPOUND: "COc1ccc2c(c1)[nH]c1c(=O)n(CCN(C)C)cnc12"
  viability [%]: 91.8
- COMPOUND: "CCCN(CCC)S(=O)(=O)c1ccc(NS(C)(=O)=O)cc1"
  viability [%]: 105
- COMPOUND: "CC(=O)Nc1ccc(Oc2ccc3nc(C)[nH]c3c2)cc1"
  viability [%]: 95.4
- COMPOUND: "c1ccc2c(Cn3ccnc3)c[nH]c2c1"
  viability [%]: 86
- COMPOUND: "CCCCN(C)CCCNC(=O)CC1Oc2ccccc2NC1=O (centres undefined)"
  viability [%]: 93.4
- COMPOUND: "O=C(Nc1nc(-c2ccccc2)cs1)C1CCCCN1S(=O)(=O)c1ccccc1 (centres undefined)"
  viability [%]: 73.8

###

# ASSAY_INFO: 384-well plate pilot, post-Golgi transport modulator project, inhibition of yeast transport mutant growth (AID 636)
# MEASUREMENT_CONDITIONS: absorbance 615 nm, about 18 h, stronger effect = higher value
Peptide text beside a SMILES is read from it. * marks the point of attachment. Boc = CC(C)(C)OC(=O)*
# inhibition annotations
REPORTED_ENDPOINT: inhibition (%)

- MOLECULE: "COCCn1c(SCc2csc(-c3ccccc3)n2)nc2ccccc21"
  UNIT_LABEL: "%"
  RESULT: 1.3
- MOLECULE: "CCCCOc1cc(=O)[nH]c(=O)[nH]1"
  UNIT_LABEL: "%"
  RESULT: -2.11
- MOLECULE: "CC12CN3CC(C)(CN(C1)C3c1ccc(Br)cc1)C2 (centres undefined)"
  UNIT_LABEL: "%"
  RESULT: -2.63
- MOLECULE: "O=C(CCNS(=O)(=O)c1ccc(Cl)cc1)NCc1ccccn1"
  UNIT_LABEL: "%"
  RESULT: -5.26
- MOLECULE: "CCOC(=O)C(C)Sc1nc2c(cnn2-c2ccc(C)cc2)c(=O)[nH]1 (centres undefined)"
  UNIT_LABEL: "%"
  RESULT: -2.53
- MOLECULE: "O=C(CCCN1C(=O)c2ccccc2C1=O)Oc1ccc(F)cc1"
  UNIT_LABEL: "%"
  RESULT: -5.47
- MOLECULE: "CN(C1CCS(=O)(=O)C1)S(=O)(=O)c1cccc2nsnc12 (centres undefined)"
  UNIT_LABEL: "%"
  RESULT: -6.58
- MOLECULE: "CCS(=O)(=O)N1CCC(C(=O)NCCc2ccc(C)cc2)CC1"
  UNIT_LABEL: "%"
  RESULT: -2.6
- MOLECULE: "COc1ccc(-c2noc(-c3ccccc3C(=O)NCc3ccco3)n2)cc1"
  UNIT_LABEL: "%"
  RESULT: -3.12
- MOLECULE: "CC(C)(C)OC(=O)N1CCCC1C(=O)NC(Cc1ccccc1)C(=O)O (stereo not drawn) (Boc-Pro-Phe-OH; configuration not given here)"
  UNIT_LABEL: "%"
  RESULT: -4.59
- MOLECULE: "c1ccc(-n2nnnc2OCCOc2nnnn2-c2ccccc2)cc1"
  UNIT_LABEL: "%"
  RESULT: -2.24
- MOLECULE: "CCOC(=O)C1CCCN(C(=O)c2cc3c(=O)n4cccc(C)c4nc3n2C)C1 (centres undefined)"
  UNIT_LABEL: "%"
  RESULT: -7.3
- MOLECULE: "Cc1c(=O)n(OCc2ccccn2)c2ccccc2[n+]1[O-]"
  UNIT_LABEL: "%"
  RESULT: -5.92
- MOLECULE: "CC(=O)c1ccc(Oc2cc(C)nc(-n3nc(C)cc3C)n2)cc1"
  UNIT_LABEL: "%"
  RESULT: -5.87
- MOLECULE: "Cc1cccc(Cn2c(=O)n(Cc3ccco3)c(=O)c3ccccc32)c1"
  UNIT_LABEL: "%"
  RESULT: -2.11
- MOLECULE: "O=C(Nc1cccnc1)c1ccc2c(c1)OCO2"
  UNIT_LABEL: "%"
  RESULT: -5.33
- MOLECULE: "NC(=O)c1ccccc1NC(=O)CN1CCOCC1"
  UNIT_LABEL: "%"
  RESULT: -1.87
- MOLECULE: "COC(=O)Nc1nnc(CCc2ccccc2)s1"
  UNIT_LABEL: "%"
  RESULT: -7.07
- MOLECULE: "CC1(C)OC(=O)C(=CNc2ccccc2)C(=O)O1"
  UNIT_LABEL: "%"
  RESULT: 0.39
- MOLECULE: "Cc1noc(C)c1COC(=O)c1ccccc1Oc1ccccc1"
  UNIT_LABEL: "%"
  RESULT: -3.25
- MOLECULE: "Cc1ccc2cc3cc(C(=O)N4CC(C)CC(C)C4)oc3nc2c1 (centres undefined)"
  UNIT_LABEL: "%"
  RESULT: -2.47
- MOLECULE: "COC(=O)CC1SCCNC1=O (centres undefined)"
  UNIT_LABEL: "%"
  RESULT: 5.87
- MOLECULE: "Cc1ccc(C)c2[nH]c(=O)c(CN(CCN3CCCC3)C(=O)Nc3cccc(Cl)c3)cc12"
  UNIT_LABEL: "%"
  RESULT: -8.22
- MOLECULE: "O=C(CCNC(=O)Cn1ccc2ccccc2c1=O)NCCN1CCc2ccccc2C1"
  UNIT_LABEL: "%"
  RESULT: -7.63
- MOLECULE: "COc1ccc(C2=Nn3c(nnc3-c3ccccc3)SC2)cc1OC"
  UNIT_LABEL: "%"
  RESULT: -4.47
- MOLECULE: "O=C(C1CCCN(S(=O)(=O)c2cnc[nH]2)C1)N1CCN(c2ccc(Cl)cc2)CC1 (centres undefined)"
  UNIT_LABEL: "%"
  RESULT: -0.13
- MOLECULE: "NC(=O)NC(=O)CSc1cccc(C(F)(F)F)c1"
  UNIT_LABEL: "%"
  RESULT: -8.63
- MOLECULE: "CCOC(=O)c1cc2c(=O)n3cccc(C)c3nc2n(Cc2ccco2)c1=NC(=O)c1cccnc1"
  UNIT_LABEL: "%"
  RESULT: -1.71
- MOLECULE: "c1ccc2c(c1)CNC1(CCCCC1)C2"
  UNIT_LABEL: "%"
  RESULT: -8.63
